# run.description: Cytotoxicity against human MRC5 cells assessed as reduction in nuclei count measured after 6 days for Hoechst 33342 staining based microscopic analysis
# Assay type: cell-based
# study.conditions: time 6 day
Listing of entries alongside the reported CC50 at 144 h.
readout: CC50 at 144 h

INSERT INTO measurements (substance_smiles, readout, observed_measurement) VALUES
  ('O=[N+]([O-])c1ccc(Cl)cc1-c1c2nc(c3ccc([nH]3)c(-c3cc(Cl)ccc3[N+](=O)[O-])c3ccc([nH]3)c(-c3cc(Cl)ccc3[N+](=O)[O-])c3ccc1[nH]3)C=C2', 'CC50 at 144 h', '> 50 µM'),
  ('CN(C)c1ccc(-c2c3nc(c4ccc([nH]4)c(-c4ccc(N(C)C)cc4[N+](=O)[O-])c4ccc([nH]4)c(-c4ccc(N(C)C)cc4[N+](=O)[O-])c4ccc2[nH]4)C=C3)c([N+](=O)[O-])c1', 'CC50 at 144 h', '> 50 µM'),
  ('O=[N+]([O-])c1cc(F)cc(-c2c3ccc([nH]3)c(-c3cc(F)ccc3[N+](=O)[O-])c3nc(c4ccc([nH]4)c(-c4cc(F)ccc4[N+](=O)[O-])c4ccc2[nH]4)C=C3)c1', 'CC50 at 144 h', '> 50 µM'),
  ('O=[N+]([O-])c1cccc(-c2c3nc(c4ccc([nH]4)c(-c4cccc([N+](=O)[O-])c4)c4ccc([nH]4)c(-c4ccccc4)c4ccc2[nH]4)C=C3)c1', 'CC50 at 144 h', '> 50 µM'),
  ('O=[N+]([O-])c1ccc(-c2c3nc(c4ccc([nH]4)c(-c4ccc([N+](=O)[O-])c(F)c4)c4ccc([nH]4)c(-c4ccc([N+](=O)[O-])c(F)c4)c4ccc2[nH]4)C=C3)cc1F', 'CC50 at 144 h', '> 50 µM'),
  ('O=[N+]([O-])c1ccc(-c2c3nc(c4ccc([nH]4)c(-c4ccc([N+](=O)[O-])cc4F)c4ccc([nH]4)c(-c4ccc([N+](=O)[O-])cc4F)c4ccc2[nH]4)C=C3)c(F)c1', 'CC50 at 144 h', '3.4 µM'),
  ('O=[N+]([O-])c1ccc(F)cc1-c1c2nc(c3ccc([nH]3)c(-c3cc(F)ccc3[N+](=O)[O-])c3ccc([nH]3)c(-c3cc(F)ccc3[N+](=O)[O-])c3ccc1[nH]3)C=C2', 'CC50 at 144 h', '> 50 µM'),
  ('O=[N+]([O-])c1cc(C(F)(F)F)ccc1-c1c2nc(c3ccc([nH]3)c(-c3ccc(C(F)(F)F)cc3[N+](=O)[O-])c3ccc([nH]3)c(-c3ccc(C(F)(F)F)cc3[N+](=O)[O-])c3ccc1[nH]3)C=C2', 'CC50 at 144 h', '> 50 µM'),
  ('O=[N+]([O-])c1cc(F)cc(-c2c3nc(c4ccc([nH]4)c(-c4cc(F)cc([N+](=O)[O-])c4)c4ccc([nH]4)c(-c4cc(F)ccc4[N+](=O)[O-])c4ccc2[nH]4)C=C3)c1', 'CC50 at 144 h', '18 µM'),
  ('O=[N+]([O-])c1cc(F)ccc1-c1c2nc(c3ccc([nH]3)c(-c3ccc(F)cc3[N+](=O)[O-])c3ccc([nH]3)c(-c3ccc(F)cc3[N+](=O)[O-])c3ccc1[nH]3)C=C2', 'CC50 at 144 h', '> 50 µM');

Values were extracted from ChEMBL document CHEMBL4699411.
